Sourced from the supplement of paper PMC12808144

System: NHEM-hTERT
run_description: cell viability relative to DMSO control (fraction of DMSO control); higher = less cytotoxic, active = 0.5 or less
conditions_used: 1 µM; 120 h
measure: cell viability
Format: numeric value only, no unit, no commentary.

Below are worked cases with known answers.
[
  {
    "molecule": "CC(O)(P(=O)([O-])O)P(=O)([O-])O.[Na+].[Na+] [Sodium etidronate]",
    "value_observed": 0.984
  },
  {
    "molecule": "CC(C)(C)c1nc(-c2cccc(NS(=O)(=O)c3c(F)cccc3F)c2F)c(-c2ccnc(N)n2)s1",
    "value_observed": 0.976
  }
]

Now look at this one.
[ask] State its cell viability: `CNC(=O)c1c(C)oc2cc(Oc3ncnc4cc(OC)c(OC)cc34)ccc12`
[reply] 0.982

###

Test system: NHEM-hTERT
run_description: cell viability relative to DMSO control (fraction of DMSO control); higher = less cytotoxic, active = 0.5 or less
conditions_used: 1 µM; 120 h
measure: cell viability
Format: numeric value only, no unit, no commentary.

Below are worked cases with known answers.
[
  {
    "compound": "CN(C)C(=O)c1cc2cnc(Nc3ccc(N4CCNCC4)cn3)nc2n1C1CCCC1 [Ribociclib]",
    "measured_on": "NHEM-hTERT",
    "cell viability": 0.989
  },
  {
    "compound": "COc1cc2c(Nc3ccc(Br)cc3F)ncnc2cc1OCC1CCN(C)CC1 [Vandetanib]",
    "measured_on": "NHEM-hTERT",
    "cell viability": 1.02
  }
]

Now look at this one.
[ask] State its cell viability: C=C1CC[C@H](O)C/C1=C/C=C1\CCC[C@]2(C)[C@@H]([C@H](C)/C=C/[C@H](C)C(C)C)CC[C@@H]12 [Vitamin D2]
[reply] 0.998

###

// cell viability lookup, one value per entry
System: Mel-DCC-11
run_description: cell viability relative to DMSO control (fraction of DMSO control); higher = less cytotoxic, active = 0.5 or less
conditions_used: 1 µM; 120 h
Format: numeric value only, no unit, no commentary.

[ask] State its cell viability: Nc1ncnc2c1ncn2[C@@H]1O[C@H](CO)[C@@H](O)[C@@H]1O [Vidarabine]
[reply] 1.1

[ask] State its cell viability: Cc1c(C(=O)Nc2ccc(N3C[C@@H](C)O[C@@H](C)C3)nc2)cccc1-c1ccc(OC(F)(F)F)cc1 [Sonidegib]
[reply] 1.17

[ask] State its cell viability: CN(C)C/C=C/C(=O)Nc1cc2c(Nc3ccc(F)c(Cl)c3)ncnc2cc1O[C@H]1CCOC1.O=C(O)/C=C\C(=O)O.O=C(O)/C=C\C(=O)O [Afatinib Dimaleate]
[reply] 0.711

[ask] State its cell viability: Cc1ccc(=O)n(-c2ccccc2)c1 [Pirfenidone]
[reply] 1.14

###

System: Mel-DCC-11
run_description: cell viability relative to DMSO control (fraction of DMSO control); higher = less cytotoxic, active = 0.5 or less
conditions_used: 1 µM; 120 h
measure: cell viability

[ask] Send back Mel-DCC-11 cell viability of `O=c1cc[nH]c(=O)[nH]1` only.
[reply] 0.996 (inactive)

[ask] Send back Mel-DCC-11 cell viability of `NC(=O)c1cccc2cn(-c3ccc([C@@H]4CCCNC4)cc3)nc12` only.
[reply] 1.01 (inactive)

[ask] Send back Mel-DCC-11 cell viability of `N.N.O=C([O-])C[O-].[Pt+2]` only.
[reply] 1.19 (inactive)

[ask] Send back Mel-DCC-11 cell viability of COc1cccc2c1C(=O)c1c(O)c3c(c(O)c1C2=O)C[C@@](O)(C(=O)CO)C[C@@H]3O[C@H]1C[C@H](N)[C@H](O)[C@H](C)O1.Cl [Doxorubicin hydrochloride] only.
[reply] 0.133 (active)

[ask] Send back Mel-DCC-11 cell viability of CC1(C)NC(=O)N(c2ccc([N+](=O)[O-])c(C(F)(F)F)c2)C1=O [Nilutamide] only.
[reply] 1.09 (inactive)

[ask] Send back Mel-DCC-11 cell viability of `CS(=O)(=O)c1ccc(C(=O)Nc2ccc(Cl)c(-c3ccccn3)c2)c(Cl)c1` only.
[reply] 0.785 (inactive)

[ask] Send back Mel-DCC-11 cell viability of `C/C=C1/NC(=O)[C@H]2CSSCC/C=C/[C@H](CC(=O)N[C@H](C(C)C)C(=O)N2)OC(=O)[C@H](C(C)C)NC1=O` only.
[reply] 0.0954 (active)

[ask] Send back Mel-DCC-11 cell viability of `COc1ccc(C(Cl)=C(c2ccc(OC)cc2)c2ccc(OC)cc2)cc1` only.
[reply] 0.717 (inactive)

[ask] Send back Mel-DCC-11 cell viability of `CCc1cnn2c(NCc3ccc[n+]([O-])c3)cc(N3CCCC[C@H]3CCO)nc12` only.
[reply] 0.0557 (active)

[ask] Send back Mel-DCC-11 cell viability of `Nc1nc2[nH]nnc2c(=O)[nH]1` only.
[reply] 1.68 (inactive)

[ask] Send back Mel-DCC-11 cell viability of CC[C@]1(O)C[C@H]2CN(CCc3c([nH]c4ccccc34)[C@@](C(=O)OC)(c3cc4c(cc3OC)N(C=O)[C@H]3[C@@](O)(C(=O)OC)[C@H](OC(C)=O)[C@]5(CC)C=CCN6CC[C@]43[C@@H]65)C2)C1.O=S(=O)(O)O [Vincristine sulfate] only.
[reply] 0.517 (inactive)

###

Test system: NHEM-hTERT
run_description: cell viability relative to DMSO control (fraction of DMSO control); higher = less cytotoxic, active = 0.5 or less
conditions_used: 1 µM; 120 h
measure: cell viability

[ask] State its cell viability: Cl.N=C1CCCN1Cc1[nH]c(=O)[nH]c(=O)c1Cl [Tipiracil hydrochloride]
[reply] 0.914 (inactive)

[ask] State its cell viability: `Cc1cc(Nc2ncc(Cl)c(Nc3ccccc3S(=O)(=O)C(C)C)n2)c(OC(C)C)cc1C1CCNCC1`
[reply] 0.88 (inactive)

[ask] State its cell viability: `COc1cc2ncnc(Nc3ccc(F)c(Cl)c3)c2cc1OCCCN1CCOCC1`
[reply] 0.905 (inactive)

[ask] State its cell viability: CC/C(=C(\c1ccc(O)cc1)c1ccc(OCCNC)cc1)c1ccccc1 [(E/Z)-Endoxifen]
[reply] 0.88 (inactive)

###

Test system: Mel-DCC-11-R
run_description: cell viability relative to DMSO control (fraction of DMSO control); higher = less cytotoxic, active = 0.8 or less
conditions_used: 1 µM; 120 h; vemurafenib co-treatment 0 µM
Response enum: active, inactive

[
  {
    "molecule": "COc1cc([C@@H]2c3cc4c(cc3[C@@H](O[C@@H]3O[C@@H]5CO[C@@H](c6cccs6)O[C@H]5[C@H](O)[C@H]3O)[C@H]3COC(=O)[C@H]23)OCO4)cc(OC)c1O [Teniposide]",
    "measured_on": "Mel-DCC-11-R",
    "class": "inactive"
  },
  {
    "molecule": "Oc1c(I)cc(Cl)c2cccnc12",
    "measured_on": "Mel-DCC-11-R",
    "class": "inactive"
  },
  {
    "molecule": "COC(=O)[C@]12CCC(C)(C)C[C@H]1[C@H]1C(=O)C=C3[C@@]4(C)C=C(C#N)C(=O)C(C)(C)[C@@H]4CC[C@@]3(C)[C@]1(C)CC2",
    "measured_on": "Mel-DCC-11-R",
    "class": "inactive"
  },
  {
    "molecule": "CC1(C)NC(=O)N(c2ccc([N+](=O)[O-])c(C(F)(F)F)c2)C1=O [Nilutamide]",
    "measured_on": "Mel-DCC-11-R",
    "class": "inactive"
  }
]

[ask] Could you kindly confirm the outcome this assay logged for `CN(C)c1nc(N(C)C)nc(N(C)C)n1` ?
[reply] inactive

[ask] Could you kindly confirm the outcome this assay logged for `CC1(COc2ccc3c(c2)ncn3-c2ccc3cccc(N4CCC(N)CC4)c3n2)COC1` ?
[reply] inactive

[ask] Could you kindly confirm the outcome this assay logged for O=C(O)C1CSCN1 (stereo not given) ?
[reply] inactive

###

// cell viability lookup, one value per entry
Tested on: Mel-DCC-11-R
run_description: cell viability relative to DMSO control (fraction of DMSO control); higher = less cytotoxic, active = 0.8 or less
conditions_used: 1 µM; 120 h; vemurafenib co-treatment 0 µM
Format: numeric value only, no unit, no commentary.

[
  {
    "compound": "CC(O)(P(=O)([O-])O)P(=O)([O-])O.[Na+].[Na+] [Sodium etidronate]",
    "measured_on": "Mel-DCC-11-R",
    "cell viability": 0.787
  }
]

[ask] State its cell viability: `CC(=O)Nc1cccc(-n2c(=O)n(C3CC3)c(=O)c3c(Nc4ccc(I)cc4F)n(C)c(=O)c(C)c32)c1`
[reply] 0.206

[ask] State its cell viability: CC[C@@]1(O)C(=O)OCc2c1cc1n(c2=O)Cc2cc3c(CN(C)C)c(O)ccc3nc2-1.Cl [Topotecan hydrochloride]
[reply] 0.645
